Readings of chromatographic logP for the listed molecules
- measurement-notes: log P by HPLC (EEC Directive 79/831 Annex V.A8)
- Type: physicochemical
- test-conditions: HPLC with aqueous formic acid/acetonitrile eluents, pH 2.7; read-out: log P (pH2.7)
Number, no unit, nothing else.

O=C(O)c1csc(C2(F)CCN(C(=O)Cn3nc(C(F)F)cc3C(F)F)CC2)n1	1.96

# chromatographic logP lookup, item CCOC(=O)c1csc(C2(F)CCN(C(=O)Cn3nc(C(F)F)cc3C(F)F)CC2)n1
2.82

Can you look up the measured chromatographic logP of CCOC(=O)c1csc(C2(F)CCNCC2)n1 for me?
0.39

Would you kindly share the measured chromatographic logP for CN(C(=O)c1csc(C2(F)CCN(C(=O)Cn3nc(C(F)F)cc3C(F)F)CC2)n1)C1CCCc2ccccc21 (racemic) ?
3.56

So what does the record say about chromatographic logP for CCOC(=O)c1csc(C2(F)CCN(C(=O)OC(C)(C)C)CC2)n1 ?
3.47
